- System: mice
- test_protocol: Neuropharmacological Assay (SmartCube): automated behavioral signature of compound-treated mice compared with a database of reference drug classes
- Type: in vivo
- measurement_setup: probability that activity matches this class of agents, 3.0 mg/kg i.p., 15 min before test, hydrochloride, 3 mg/kg
Structures can show the parent of a compound that is named as a salt.
measurement_type: AP

A selection of reference data follows.
[
  {
    "compound": "CNC1CCc2cc(F)sc2C1 (single isomer, unassigned) [Compound 80, hydrochloride]",
    "experimental_target": "mice",
    "observed_result": "+ (≥4%)"
  },
  {
    "compound": "CCc1scc2c1CC(NC)CC2 (single isomer, unassigned) [Compound 116, hydrochloride]",
    "experimental_target": "mice",
    "observed_result": "ND (^ <4%)"
  },
  {
    "compound": "CNC1CCc2c(csc2C)C1 (single isomer, unassigned) [Compound 33, hydrochloride]",
    "experimental_target": "mice",
    "observed_result": "++ (≥24%)"
  },
  {
    "compound": "NC1COc2ccsc2C1 (single isomer, unassigned) [Compound 135, hydrochloride]",
    "experimental_target": "mice",
    "observed_result": "+ (≥4%)"
  },
  {
    "compound": "CNC1CCc2c(Cl)sc(Cl)c2C1 (single isomer, unassigned) [Compound 59, hydrochloride]",
    "experimental_target": "mice",
    "observed_result": "+++ (≥49%)"
  }
]

Entry CNC1CCCc2ccsc2C1.Cl (single isomer, unassigned) [Compound 25] — recorded AP = ++++ (≥74%)

The measured AP associated with Cl.c1cc2c(s1)CC(N1CCCC1)CC2 (single isomer, unassigned) [Compound 17] reads +++ (≥49%)

Noted for CNC1CCc2cc(C#N)sc2C1 (single isomer, unassigned) [Compound 37, hydrochloride] : its AP reads ND (^ <4%)

###

- Test system: mice
- test_protocol: Neuropharmacological Assay (SmartCube): automated behavioral signature of compound-treated mice compared with a database of reference drug classes
- Type: in vivo
- measurement_setup: SmartCube class probability, 3.0 mg/kg i.p., 15 min before test, hydrochloride, 3 mg/kg
Structures can show the parent of a compound that is named as a salt.

[
  {
    "compound": "CNC1CCc2cc(Cl)sc2C1 (single isomer, unassigned) [Compound 146, hydrochloride]",
    "AD": "ND (^ <4%)"
  },
  {
    "compound": "CNC1(C)CCc2cc(C(F)(F)F)sc2C1.Cl (single isomer, unassigned) [Compound 245]",
    "AD": "++ (≥24%)"
  },
  {
    "compound": "NC1CCc2scc(F)c2C1 (single isomer, unassigned) [Compound 191, hydrochloride]",
    "AD": "++ (≥24%)"
  },
  {
    "compound": "NC1CCc2scc(F)c2C1 (single isomer, unassigned) [Compound 192, hydrochloride]",
    "AD": "ND (^ <4%)"
  }
]

###

- Test system: mice
- test_protocol: Neuropharmacological Assay (SmartCube): automated behavioral signature of compound-treated mice compared with a database of reference drug classes
- Assay type: in vivo
- measurement_setup: SmartCube class probability, 3.0 mg/kg i.p., 15 min before test, hydrochloride, 3 mg/kg
Where a name gives a salt, the structure may show the parent alone.
measurement_type: AD

[
  {
    "compound": "CNC1(C)CCc2c(C(F)(F)F)csc2C1.Cl (single isomer, unassigned) [Compound 261]",
    "AD": "+++ (≥49%)"
  },
  {
    "compound": "Cc1csc2c1CC(N)CC2 (single isomer, unassigned) [Compound 143, hydrochloride]",
    "AD": "+ (≥4%)"
  },
  {
    "compound": "CC1(N)CCc2c(C(F)(F)F)csc2C1.Cl (single isomer, unassigned) [Compound 242]",
    "AD": "+++ (≥49%)"
  },
  {
    "compound": "CNC1CCc2csc(C3CC3)c2C1 (single isomer, unassigned) [Compound 155, hydrochloride]",
    "AD": "+ (≥4%)"
  },
  {
    "compound": "CNC1CCc2c(C(F)(F)F)csc2C1 (single isomer, unassigned) [Compound 230, hydrochloride]",
    "AD": "+ (≥4%)"
  }
]

AD measured on NC1CCc2sccc2C1 (single isomer, unassigned) [Compound 212, hydrochloride] = +++ (≥49%)
